- Tested on: HCT-116
- Assay protocol: Cytotoxicity against Homo sapiens (human) HCT116 assessed as cell growth at 10 uM after 48 hr by SRB assay relative to control
- Assay type: functional
- Condition info: HCT-116, 48 h, read-out: Activity
Under this convention, t denotes growth at 10 µM strictly below 80% and f denotes growth at 10 µM at or above 80%.

Worked cases, answers included:
Molecule: CC1=NN(C(=O)c2sc3nnc(-c4ccccc4)c(-c4ccccc4)c3c2O)C(=O)C1
System name: HCT-116
Category label: f
//
Molecule: Oc1c(-c2nnc(-c3ccccc3)o2)sc2nnc(-c3ccccc3)c(-c3ccccc3)c12
System name: HCT-116
Category label: t
//
Molecule: Oc1c(-c2nnc(-c3ccc(Cl)cc3)o2)sc2nnc(-c3ccccc3)c(-c3ccccc3)c12
System name: HCT-116
Category label: t
//
Molecule: CC(=O)Oc1c(C2=NN(C(C)=O)C(c3ccccc3[N+](=O)[O-])O2)sc2nnc(-c3ccccc3)c(-c3ccccc3)c12 (stereo unspecified)
System name: HCT-116
Category label: t
//
Molecule: Oc1c(-c2nnc(SCc3ccccc3)o2)sc2nnc(-c3ccccc3)c(-c3ccccc3)c12
System name: HCT-116
Category label: f
//
Molecule: CNc1nnc(-c2sc3nnc(-c4ccccc4)c(-c4ccccc4)c3c2O)s1
System name: HCT-116
Category label: f
//
Molecule: Oc1c(-c2n[nH]c(=S)o2)sc2nnc(-c3ccccc3)c(-c3ccccc3)c12
System name: HCT-116
Category label: f
//
Molecule: CCOC(=O)c1c(Nc2ccc(S(N)(=O)=O)cc2)nnc(-c2ccccc2)c1-c1ccccc1
System name: HCT-116
Category label: f
//
Molecule: CSc1nnc(-c2sc3nnc(-c4ccccc4)c(-c4ccccc4)c3c2O)o1
System name: HCT-116
Category label: t

In plain terms, does CCOC(=O)c1c(Nc2ccc(S(=O)(=O)Nc3nccs3)cc2)nnc(-c2ccccc2)c1-c1ccccc1 come in under 80% for growth at 10 µM? f
